# System: FRDA fibroblasts
# experiment notes: Rescue of FRDA fibroblasts stressed by L-buthionine-(S,R)-sulfoximine (BSO), viability by Calcein AM fluorescence
# Format: cell-based, human
# condition details: Homo sapiens; BSO-stressed (1 mM) FRDA fibroblasts GM04078; second of three experiments; read-out: EC50 Value 2
quantity measured: EC50 (pM)
One number for each entry, in pM.

-- ask Query EC50 on FRDA fibroblasts for "CC1=C(C)C(=O)C(CC[C@](C)(O)CCC[C@H](C)CCC[C@H](C)CCCC(C)C)=C(C)C1=O"
-- reply 3

* * *

# Test system: FRDA fibroblasts
# experiment notes: Rescue of FRDA fibroblasts stressed by L-buthionine-(S,R)-sulfoximine (BSO), viability by Calcein AM fluorescence
# Format: cell-based, human
# condition details: Homo sapiens; BSO-stressed (1 mM) FRDA fibroblasts GM04078; average of three experiments; read-out: EC50 Average
quantity measured: EC50
Number first, unit second.

-- ask Quick check: EC50 of "CC1=C(C)C(=O)C(CC[C@](C)(O)CCC[C@H](C)CCC[C@H](C)CCCC(C)C)=C(C)C1=O" ?
-- reply 1.4 pM
